Provenance of the data: the RNAGym collection of RNA variant scans (doi:10.7554/elife.90254)

Entries and their self-cleavage
B1: LINE1-full (parent)
chain: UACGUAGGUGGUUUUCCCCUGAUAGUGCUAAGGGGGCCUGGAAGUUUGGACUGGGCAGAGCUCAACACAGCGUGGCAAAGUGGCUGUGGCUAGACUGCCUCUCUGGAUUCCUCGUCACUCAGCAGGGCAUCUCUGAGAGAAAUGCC

- Variants of: B1
- protocol.text: self-cleavage, relative activity (ratio to wild type); higher = more cleavage; in vitro, sequencing; the parent is a self-cleaving ribozyme

- variant.identifier: "U52C C120U"
  self-cleavage: 1.77
- variant.identifier: "U62A U134A"
  self-cleavage: 0.07
- variant.identifier: "U45C U119A"
  self-cleavage: 1.3
- variant.identifier: "G49A U130C"
  self-cleavage: 1.55
- variant.identifier: "U20A A121U"
  self-cleavage: 1.55
- variant.identifier: "A42G G122A"
  self-cleavage: 0.92
- variant.identifier: "U14C U73G"
  self-cleavage: 1.05
- variant.identifier: "A69C A121U"
  self-cleavage: 0.04
- variant.identifier: "U26C A69G"
  self-cleavage: 0.46
- variant.identifier: "G10A G11A"
  self-cleavage: 1.61
- variant.identifier: "U85A C120A"
  self-cleavage: 0.07
- variant.identifier: "G97A G126A"
  self-cleavage: 0.09
- variant.identifier: "U29A U104A"
  self-cleavage: 1.26
- variant.identifier: "U20A A43U"
  self-cleavage: 1.46
- variant.identifier: "U13C C118U"
  self-cleavage: 0.99
- variant.identifier: "U81A U100C"
  self-cleavage: 2.98
- variant.identifier: "G105U U108C"
  self-cleavage: 1.98
- variant.identifier: "U23C C113A"
  self-cleavage: 0.4
- variant.identifier: "G4C A107U"
  self-cleavage: 1.49
- variant.identifier: "G86A C118U"
  self-cleavage: 0.09
- variant.identifier: "U87C G106A"
  self-cleavage: 0.21
- variant.identifier: "U29A U100A"
  self-cleavage: 0.91
- variant.identifier: "G70A A136U"
  self-cleavage: 0.16
- variant.identifier: "A78G U115C"
  self-cleavage: 1.51
- variant.identifier: "C16U A92G"
  self-cleavage: 0.2
- variant.identifier: "G53C A64G"
  self-cleavage: 0.22
- variant.identifier: "U47A U115A"
  self-cleavage: 1.05
- variant.identifier: "A22C A77U"
  self-cleavage: 0.35
- variant.identifier: "G4A U73C"
  self-cleavage: 1.68
- variant.identifier: "G74A A129G"
  self-cleavage: 1.53
- variant.identifier: "C103A A138G"
  self-cleavage: 1.6
- variant.identifier: "A22U A121G"
  self-cleavage: 1
- variant.identifier: "U13A U134G"
  self-cleavage: 1.34
- variant.identifier: "U47G A59U"
  self-cleavage: 1
- variant.identifier: "U12C A24U"
  self-cleavage: 1.18
- variant.identifier: "U20A A22G"
  self-cleavage: 0.69
- variant.identifier: "C133A C145A"
  self-cleavage: 1.51
- variant.identifier: "U14C U52C"
  self-cleavage: 1.21
- variant.identifier: "U23C C63U"
  self-cleavage: 0.35
- variant.identifier: "A67G C98U"
  self-cleavage: 0.06
- variant.identifier: "A43U G105A"
  self-cleavage: 1.21
- variant.identifier: "U13C C99G"
  self-cleavage: 0.39
- variant.identifier: "U52A G137A"
  self-cleavage: 0.99
- variant.identifier: "A64U U104A"
  self-cleavage: 0.29
- variant.identifier: "C76A"
  self-cleavage: 1.71
- variant.identifier: "A42U U85C"
  self-cleavage: 0.13
- variant.identifier: "U12G A30U"
  self-cleavage: 0.83
- variant.identifier: "U52C A65G"
  self-cleavage: 0.07
- variant.identifier: "A22G G72A"
  self-cleavage: 1.94
- variant.identifier: "C66U A92G"
  self-cleavage: 0.02
- variant.identifier: "U62C C111A"
  self-cleavage: 0.02
- variant.identifier: "C61A A140G"
  self-cleavage: 0.05
- variant.identifier: "A31G A57U"
  self-cleavage: 0.3
- variant.identifier: "A30G A31G"
  self-cleavage: 1.15
- variant.identifier: "U14C U29G"
  self-cleavage: 0.26
- variant.identifier: "C95U A141G"
  self-cleavage: 0.07
- variant.identifier: "U52A G58A"
  self-cleavage: 0
- variant.identifier: "G35A G125U"
  self-cleavage: 1.03
- variant.identifier: "U62A U81C"
  self-cleavage: 0.04
- variant.identifier: "U102C A121U"
  self-cleavage: 2.05
- variant.identifier: "U115A A136U"
  self-cleavage: 1.52
- variant.identifier: "U45C C120U"
  self-cleavage: 1.45
- variant.identifier: "U14A A94U"
  self-cleavage: 0.13
- variant.identifier: "U23A U104C"
  self-cleavage: 0.84
- variant.identifier: "U14C A117U"
  self-cleavage: 1.3
- variant.identifier: "A69U U112C"
  self-cleavage: 0.06
- variant.identifier: "U130C A142U"
  self-cleavage: 1.6
- variant.identifier: "U100A A138U"
  self-cleavage: 0.89
- variant.identifier: "A64G A138U"
  self-cleavage: 0.27
- variant.identifier: "A69U U143A"
  self-cleavage: 0.04
- variant.identifier: "U39C U73C"
  self-cleavage: 2.09
- variant.identifier: "A30G A57C"
  self-cleavage: 0
- variant.identifier: "G8A U85C"
  self-cleavage: 0.25
- variant.identifier: "A2C U143A"
  self-cleavage: 1.85
- variant.identifier: "A79G G122A"
  self-cleavage: 1.31
- variant.identifier: "U73A C118U"
  self-cleavage: 1.25
- variant.identifier: "U52C G126U"
  self-cleavage: 1.31
- variant.identifier: "G4U A138U"
  self-cleavage: 1.19
- variant.identifier: "A79G U108C"
  self-cleavage: 1.61
- variant.identifier: "A43C U109C"
  self-cleavage: 0.26
- variant.identifier: "G53A A59G"
  self-cleavage: 0.06
- variant.identifier: "A30U U134A"
  self-cleavage: 0.68
- variant.identifier: "G35U U87C"
  self-cleavage: 0.14
- variant.identifier: "A31C U45C"
  self-cleavage: 1.84
- variant.identifier: "A77C A121G"
  self-cleavage: 1.55
- variant.identifier: "U12C A22U"
  self-cleavage: 1.68
- variant.identifier: "U5C A50G"
  self-cleavage: 1.01
- variant.identifier: "U14C U47A"
  self-cleavage: 1.17
- variant.identifier: "U39A G105U"
  self-cleavage: 1.23
- variant.identifier: "U85G U109C"
  self-cleavage: 0
- variant.identifier: "A30G U102G"
  self-cleavage: 1.84
